tgt: Muscarinic acetylcholine receptor M4 (Homo sapiens)
assay.text: M4-linked GIRK flux change, two-sided – cell-based, HEK293 M4/GIRK, thallium flux, BTC-AM, M4 allosteric agonist project, primary screen (AID 625);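 also: thallium influx through GIRK channels coupled to M4 in HEK293 cells with BTC-AM dye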
condition.label: at 10 µM, actives lie on both sides
Decide using fluorescence slope alone. Strictly below 0.006: class 1. Equal to or above 0.006: class 0.

# molecule, classification
records = [
    ("CCOC(=O)C1CCCN(c2cc(=O)n(Cc3ccc(F)cc3)c(=O)[nH]2)C1 (centres undefined)", "class 0"),
    ("CN(CCOC(=O)c1cccc(Br)c1)C(C)(C)C", "class 1"),
    ("Cn1c(=O)c2c(nc(NCCc3ccccc3)n2CC(=O)NCCc2ccccc2)n(C)c1=O", "class 1"),
    ("Cc1cc(O)c(C2(C(F)(F)F)NCCNC2=O)cc1C (centres undefined)", "class 0"),
    ("C=CCc1cc(C(=O)N2CCCCC2)ccc1O", "class 1"),
    ("OCC#CCSc1nnc(-c2ccccc2Br)o1", "class 1"),
    ("c1csc(-c2nc3nc4ccccc4nc3n2Cc2ccc3c(c2)OCO3)c1", "class 1"),
    ("N#CCCn1cnc2ccccc21", "class 0"),
    ("COc1cc(C(=O)N2c3ccccc3CC2C)cc(OC)c1OC (centres undefined)", "class 0"),
    ("Cn1cc(C(=O)NC2CCCCCCC2)c(=O)c2cc(S(=O)(=O)N3CCCC3)ccc21", "class 0"),
    ("COc1ccc2nc(C)cc(N3CCOCC3)c2c1", "class 1"),
    ("Cc1cc(Cl)c(S(=O)(=O)NC2CCCCC2)cc1OCC(=O)Nc1nncs1", "class 1"),
    ("COc1ccccc1N1CCN(CCCNC(=O)Nc2ccccc2)CC1", "class 1"),
    ("O=C(NC1CCCC1)c1c[nH]c2ccc(F)cc2c1=O", "class 0"),
    ("Cc1cc(C)cc(NC(=O)N2CCC(c3nc4ccccc4o3)CC2)c1", "class 1"),
]

====

Reported cell count by item:
assay.text: inhibitors of TNFa-induced NFkB p65 translocation, primary screen, imaging, HUVEC, MLSMR starter and 10KST1 sets (AID 438);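 also: compound added about 3h40 before a 20 min TNFalpha stimulation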
condition.label: HUVEC TNFa-induced p65 nuclear translocation; measured here: nuclei count (cytotoxicity indicator), at 2.08 µM

# molecule, cell count
rows = [
    ("COc1ccc(N(CC(=O)N2CCN(Cc3ccc4c(c3)OCO4)CC2)S(C)(=O)=O)cc1OC", 359),
    ("COc1cccc(NC(=O)Nc2cccs2)c1", 355),
    ("Cc1nc2cc(NC(=O)N3CC4(C)CC3CC(C)(C)C4)ccc2n1C (configuration not stated)", 657),
    ("Cc1oc(-c2ccccc2)cc1C(N)=O", 248),
    ("CC(CN1CCOCC1)(NS(=O)(=O)c1ccccc1)c1ccccc1 (configuration not stated)", 460),
    ("COC(=O)C1(C(=O)OC)Sc2ccccc2C1=O", 427),
    ("Cc1cccc2cc(CN(Cc3nnnn3C3CCCC3)C3CCCCC3)c(=O)[nH]c12", 349),
    ("CCn1cc(/C=C(/C#N)S(=O)(=O)c2ccccc2)cn1", 593),
    ("CC(=O)N1CCc2cc(S(=O)(=O)NC(CC(C)C)C(=O)N3CCn4c3nc3ccccc34)ccc21 (configuration not stated)", 292),
    ("Cc1ccc(CCNC(=O)C2CCN(S(=O)(=O)c3cccc4nsnc34)CC2)cc1", 644),
    ("Cc1cccn2c(=O)c3cc(C#N)c(=O)n(CCCN4CCOCC4)c3nc12", 519),
    ("CCOc1ccc2cc(C#N)c(SCC(=O)N3CCOCC3)nc2c1", 386),
    ("CCn1c(=O)n(CC(=O)Nc2cc(OC)ccc2OC)c(=O)c2ccccc21", 696),
    ("COc1ccc(OC)c(CNC(=O)CCN2C(=O)COc3ccccc32)c1", 663),
    ("CN(C)CCSc1nnc2sc3ccccc3n12", 599),
    ("CCOc1ccc2cc(C#N)c(SCC(=O)N3CCCC3)nc2c1", 451),
    ("Cc1cccc(N(CC(N)=O)S(C)(=O)=O)c1C", 369),
    ("Cn1c(SCC(N)=O)nnc1C1CCN(S(=O)(=O)c2ccccc2C(F)(F)F)CC1", 554),
    ("COCCn1c(NCc2ccc(C)cc2)nc2c1c(=O)[nH]c(=O)n2C", 848),
    ("Cc1ccc(NC(=O)CSc2nnc(CSc3nc(C)cc(C)n3)n2Cc2ccco2)c(C)c1", 655),
    ("O=C(O)C1C2CCC(C2)C1C(=O)NCCCn1ccnc1 (configuration not stated)", 486),
    ("CCOc1ccc(N(C)S(=O)(=O)c2ccc3[nH]cc(C(=O)NCC4CCCO4)c(=O)c3c2)cc1 (configuration not stated)", 313),
    ("CC1Cc2cc(/C(O)=C3/C(=O)C(=O)N(CCN4CCOCC4)C3c3cccc(O)c3)ccc2O1 (configuration not stated)", 576),
    ("CCOC(=O)C1CCN(C(=O)c2c(-c3c(Cl)cccc3Cl)noc2C)CC1", 376),
    ("N#C[C@@H]1[C@@H]2C(=O)N(c3ccc4c(c3)OCCO4)C(=O)[C@@H]2C2c3ccccc3C=CN21 (some centres not stated)", 351),
    ("CCOC(=O)CSc1nc2cc(C(=O)NCc3ccco3)ccc2c(=O)n1-c1ccc(F)cc1", 329),
    ("Nc1nnc(SCCOc2ccccc2)s1", 417),
]

====

assay.text: TLR3 IRF3 reporter activation blockers – cell-based, poly I:C stimulus, luciferase, 10K MLSCN set, primary screen (AID 602277)
condition.label: HEK293-TLR3 RL24 IRF3 luciferase reporter, at 10 µM, stronger effect = higher value
Please enter criterion met where inhibition is greater than or equal to 10%, and criterion not met where it is lower.

# compound, classification
measured = [
    ("COc1ccc(OC)c(C2C3=C(CCCC3=O)Nc3c2c(=O)n(C)c(=O)n3C)c1 (configuration not stated)", "criterion not met"),
    ("O=C(Nc1ccc(Cl)c(Cl)c1)Nc1cc(C(=O)N2CCOCC2)ccc1N1CCCCC1", "criterion met"),
    ("CCOC(=O)Cc1nnc(NC(=O)CSc2nnc3c4ccccc4n(C(C)C)c3n2)s1", "criterion met"),
    ("CCCNC(=O)C1CN(S(=O)(=O)c2ccccc2)CCN1S(=O)(=O)c1ccccc1 (configuration not stated)", "criterion met"),
    ("CCn1c(SCC(=O)N2CCCc3ccccc32)nnc1-c1cccs1", "criterion met"),
    ("CCCCOc1ccc(NC(=O)Cn2c(=O)ccc3c(C)cc(C)nc32)cc1", "criterion met"),
    ("Cn1c(C(=O)NCC2CCCO2)cc2c(=O)[nH]c3ccccc3c21 (configuration not stated)", "criterion not met"),
    ("CC(=O)Nc1ccc(NC2=CC(=O)CC(C)(C)C2)cc1", "criterion met"),
    ("O=C(NCc1ccco1)C1Cc2ccccc2CN1S(=O)(=O)c1ccccc1F (configuration not stated)", "criterion not met"),
    ("Cc1cc(C(=O)Nc2cc(C)n(Cc3ccc(Cl)cc3)n2)no1", "criterion not met"),
    ("CCOC(=O)c1ccc(NC(=O)CCc2nc(-c3ccc(C)cc3)no2)cc1", "criterion not met"),
    ("N[C@@H](Cc1cc(I)c(Oc2ccc(O)c(I)c2)c(I)c1)C(=O)O", "criterion met"),
    ("COC(=O)c1nc2n(n1)C(c1ccc(OC)c(OC)c1)C(C(=O)OC1CCCCC1)=C(C)N2 (configuration not stated)", "criterion met"),
    ("O=C(NCCc1cccc(Cl)c1)c1cccnc1", "criterion not met"),
    ("CC1(C)CC(=O)c2cnc(NC(=O)CSc3nc4ccccc4o3)nc2C1", "criterion met"),
    ("O=C(CN1C(=O)NC2(CCCCCC2)C1=O)N1CCC(Cc2ccccc2)CC1", "criterion met"),
    ("N#Cc1c(N)n(CCNC(=O)c2cccs2)c2nc3ccccc3nc12", "criterion not met"),
    ("CCc1nnc(NC(=O)CSc2nc3ccccc3s2)s1", "criterion met"),
    ("CC1(C)CC(=O)C(C=NCCO)=C(O)C1", "criterion not met"),
    ("COc1ccc(N2CCN(C(=O)CSc3nnc(Cn4nnc5ccccc54)n3C)CC2)cc1", "criterion not met"),
    ("Cn1cccc1C(=O)NC(=O)CSc1nnc(C2CC2)n1-c1ccccc1", "criterion not met"),
    ("COc1ccc(CCn2c(N)c(C#N)c3nc4ccccc4nc32)cc1OC", "criterion met"),
    ("COCCOc1nc2ccccc2nc1C", "criterion not met"),
    ("Cc1noc(C)c1C(=O)OCC(=O)Nc1ccccc1C(=O)NC(C)c1ccccc1 (configuration not stated)", "criterion not met"),
    ("COc1ccc2c(c1OC)C(=O)OC2Nn1cncn1 (configuration not stated)", "criterion met"),
    ("CN(C)c1ccc(CNC2CC(C)(C)NC(C)(C)C2)cc1", "criterion met"),
    ("COC(=O)c1oc2ccc(Br)cc2c1NC(=O)CN1CCN(C)CC1", "criterion not met"),
    ("COc1ccc(CNc2nc(SCC(=O)NCc3ccco3)nc3ccccc23)cc1", "criterion not met"),
    ("CCCCOc1ccc(-c2nnn(CC(=O)Nc3ncc(CC(=O)OCC)s3)n2)cc1", "criterion met"),
    ("COc1ccc(OC)c(C2=NOC(C(=O)Nc3cccnc3)C2)c1 (configuration not stated)", "criterion not met"),
    ("CCOCC(=O)Nc1nc2ccc(OC)cc2s1", "criterion not met"),
    ("NS(=O)(=O)c1cc2c(cc1Cl)NCNS2(=O)=O", "criterion met"),
    ("O=C(CSc1nnc(-c2cccnc2)o1)Nc1ccccn1", "criterion not met"),
    ("Cc1ccc(S(=O)(=O)N2CCOCC2)cc1C(=O)Nc1ccc(-c2cn3ccsc3n2)cc1", "criterion not met"),
    ("O=S(=O)(NCCc1ccccn1)c1cccs1", "criterion met"),
]

All values here come from PubChem BioAssay.
